system: Zucker rats; experiment: Liver triglyceride contents in Zucker rats; assay type: in vivo; details: Rattus norvegicus, 336 h, 1 mg/kg once a day for 2 weeks, read-out: Triglyceride reducing rate (%)
Where inhibition in vivo at 1 mg/kg equals or exceeds 30%, the correct label is fulfilled; where it does not, the label is not fulfilled.

| compound | discrete_label |
| --- | --- |
| CCCCCCCN(CCOc1ccc(CC(OCC)C(=O)O)cc1)C(=O)OC (stereo not drawn) | fulfilled |
| CCCCOCCN(CCOc1ccc(CC(OCC)C(=O)O)cc1)C(=O)OC(C)C (stereo not drawn) | not fulfilled |
| CCOC(Cc1ccc(OCCN(CCOc2ccccc2)C(=O)OC(C)C)cc1)C(=O)O (stereo not drawn) | not fulfilled |
| C=CCCOC(=O)N(CCCCCCC)CCOc1ccc(CC(OCC)C(=O)O)cc1 (stereo not drawn) | fulfilled |
| CCCCOCCN(CCOc1ccc(CC(OC(C)C)C(=O)O)cc1)C(=O)OCC(C)C (stereo not drawn) | fulfilled |
| CCCCCCCN(CCOc1ccc(CC(OCC)C(=O)O)cc1)C(=O)OCC (stereo not drawn) | fulfilled |
| CCCCCCCN(CCOc1ccc(CC(OCCC)C(=O)O)cc1)C(=O)OC (stereo not drawn) | not fulfilled |
| CCCCCCCN(CCOc1ccc(CC(OCC)C(=O)OCC)cc1)C(=O)OCC(F)(F)F (stereo not drawn) | fulfilled |
| CCCCCCCN(CCOc1ccc(CC(OC(C)C)C(=O)O)cc1)C(=O)OC (stereo not drawn) | fulfilled |

----------
tested on: Zucker rats; test: Liver triglyceride contents in Zucker rats; assay type: in vivo; conditions: Rattus norvegicus, 336 h, 1 mg/kg once a day for 2 weeks, read-out: Triglyceride reducing rate (%)
// label = 1.0 if inhibition in vivo at 1 mg/kg is not less than 40%, otherwise 0.0

| compound | discrete_label |
| --- | --- |
| CCCCOCCN(CCOc1ccc(CC(OC(C)C)C(=O)O)cc1)C(=O)OC(C)C (stereo not drawn) | 0.0 |
| CCCCOCCN(CCOc1ccc(CC(OCC)C(=O)O)cc1)C(=O)OCCC (stereo not drawn) | 1.0 |
| CCCCCCCN(CCOc1ccc(CC(OCC)C(=O)O)cc1)C(=O)OC(C)C (stereo not drawn) | 1.0 |
| C#CCOC(=O)N(CCCCCCC)CCOc1ccc(CC(OCC)C(=O)O)cc1 (stereo not drawn) | 1.0 |
| CCCCCCCN(CCOc1ccc(CC(OCC)C(=O)O)cc1)C(=O)OCC(C)C (stereo not drawn) | 0.0 |
| CCCCOCCN(CCOc1ccc(CC(OCC)C(=O)O)cc1)C(=O)OCC(C)C (stereo not drawn) | 0.0 |
| CCCCCCCN(CCOc1ccc(CC(OC(C)C)C(=O)O)cc1)C(=O)OC(C)C (stereo not drawn) | 0.0 |

----------
tested on: hamsters fed with high cholesterol diet; assay: Total plasma cholesterol and non-HDL cholesterol reducing action in hamster fed high cholesterol diet; format: in vivo; settings: Mesocricetus auratus, 192 h; hamsters on high cholesterol diet, 10 mg/kg oral once a day for one week, plasma on 8th day; read-out: Total cholesterol reducing rate (%)
Entries annotated with measured inhibition in vivo at 10 mg/kg

| compound | inhibition in vivo at 10 mg/kg / % |
| --- | --- |
| CCCCOCCN(CCOc1ccc(CC(OCC)C(=O)O)cc1)C(=O)OCC(C)C (stereo not shown) | 25 |
| C=CCCOC(=O)N(CCCCCCC)CCOc1ccc(CC(OCC)C(=O)O)cc1 (stereo not shown) | 45 |
| CCCCCCCN(CCOc1ccc(CC(OC(C)C)C(=O)O)cc1)C(=O)OC(C)C (stereo not shown) | 45 |
| CCCCCCCN(CCOc1ccc(CC(OCC)C(=O)OCC)cc1)C(=O)OCC(F)(F)F (stereo not shown) | 24 |
| CCCCCCCN(CCOc1ccc(CC(OCC)C(=O)O)cc1)C(=O)OCC(C)C (stereo not shown) | 12 |
| CCCCCCCN(CCOc1ccc(CC(OCC)C(=O)O)cc1)C(=O)OCC (stereo not shown) | 48 |
| C#CCOC(=O)N(CCCCCCC)CCOc1ccc(CC(OCC)C(=O)O)cc1 (stereo not shown) | 34 |
| CCCCCCCN(CCOc1ccc(CC(OCC)C(=O)O)cc1)C(=O)Nc1ccc(F)cc1F (stereo not shown) | 30 |
| CCCCOCCN(CCOc1ccc(CC(OCC)C(=O)O)cc1)C(=O)OCCC (stereo not shown) | 17 |
| CCCCOCCN(CCOc1ccc(CC(OCC)C(=O)O)cc1)C(=O)OC(C)C (stereo not shown) | 10 |
| CCCCCCCN(CCOc1ccc(CC(OCC)C(=O)O)cc1)C(=O)OC (stereo not shown) | 39 |
| CCCCCCCN(CCOc1ccc(CC(OCCC)C(=O)O)cc1)C(=O)OC (stereo not shown) | 28 |
| CCOC(Cc1ccc(OCCN(CCOc2ccccc2)C(=O)OC(C)C)cc1)C(=O)O (stereo not shown) | 8 |
| CCCCCCCN(CCOc1ccc(CC(OC(C)C)C(=O)O)cc1)C(=O)OC (stereo not shown) | 45 |
| CCCCOCCN(CCOc1ccc(CC(OC(C)C)C(=O)O)cc1)C(=O)OC(C)C (stereo not shown) | 22 |
| CCCCCCCN(CCOc1ccc(CC(OCC)C(=O)O)cc1)C(=O)OCc1ccccc1 (stereo not shown) | 41 |
| CCCCOCCN(CCOc1ccc(CC(OC(C)C)C(=O)O)cc1)C(=O)OCC(C)C (stereo not shown) | 18 |
| CCCCCCCN(CCOc1ccc(CC(OCC)C(=O)O)cc1)C(=O)OCCC (stereo not shown) | 37 |
| CCCCCCCN(CCOc1ccc(CC(OCC)C(=O)O)cc1)C(=O)OC(C)C (stereo not shown) | 40 |
